The values you see were collected from patent US7902181B2.

Molecular target: Recombinant Human (rh) DPP1 (Homo sapiens, UniProt P53634)
Sequence (P53634 25-463): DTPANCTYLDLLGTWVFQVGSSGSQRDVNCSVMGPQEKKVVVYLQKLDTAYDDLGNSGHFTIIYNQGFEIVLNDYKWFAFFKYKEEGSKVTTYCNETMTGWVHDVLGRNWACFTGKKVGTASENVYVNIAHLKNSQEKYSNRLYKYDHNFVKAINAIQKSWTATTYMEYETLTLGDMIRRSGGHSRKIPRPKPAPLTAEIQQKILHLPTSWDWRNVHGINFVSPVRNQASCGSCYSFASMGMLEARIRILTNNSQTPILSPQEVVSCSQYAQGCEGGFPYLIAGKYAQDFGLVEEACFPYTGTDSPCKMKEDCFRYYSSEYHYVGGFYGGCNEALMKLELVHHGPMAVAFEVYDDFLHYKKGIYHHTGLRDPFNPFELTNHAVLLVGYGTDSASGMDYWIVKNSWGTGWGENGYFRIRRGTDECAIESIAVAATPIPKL
Experiment: Fluorescence Assay for Recombinant Human (rh) DPP1
Format: biochemical
Details: rhDPP1; substrate H-Gly-Arg-AMC; pH5.0; 30 min pre-incubation, 60 min reaction at 22° C.; highest concentration 10 μM; read-out: DPP1 activity, pIC50 (converted)
Where a name gives a salt, the structure may show the parent alone.
RECORDED METRIC: IC50 (nM)
# output: bare number, implied unit nM

N#C[C@H](Cc1ccc(-c2ccc(S(=O)(=O)NCCO)cc2)cc1)NC(=O)[C@@H]1CCCCN1 :: 10
CSc1ccc(-c2ccc(C[C@@H](C#N)NC(=O)[C@@H]3CCCCN3)cc2)cc1C#N :: 7.94
Cc1nccn1-c1cc(-c2ccc(C[C@@H](C#N)NC(=O)[C@@H]3CCCCN3)cc2)ccc1C#N :: 15.8
N#C[C@H](Cc1ccc(-c2cccc(Cl)c2)cc1)NC(=O)[C@@H]1CCCCN1 [Example 1, Trifluoroacetate] :: 63.1
CCCOc1ccc(-c2ccc(C[C@@H](C#N)NC(=O)[C@@H]3CCCCN3)cc2)cc1F :: 316
CN1Cc2cc(-c3ccc(C[C@@H](C#N)NC(=O)[C@@H]4CCCCN4)cc3)ccc2S1(=O)=O :: 12.6

Prompt line: Given the entry CN(C)C(=O)c1cc(Cl)cc(-c2ccc(CC(C#N)NC(=O)[C@@H]3CCCCN3)cn2)c1 (mixture of isomers) [Example 81, Trifluoroacetate] , report its measured IC50.
Response line: 794

* * *

Items are presented alongside their recorded log10 of IC50.
Molecular target: Recombinant Human (rh) DPP1 (Homo sapiens, UniProt P53634)
Experiment: Fluorescence Assay for Recombinant Human (rh) DPP1
Format: biochemical
Conditions: rhDPP1; substrate H-Gly-Arg-AMC; pH5.0; 30 min pre-incubation, 60 min reaction at 22° C.; highest concentration 10 μM; read-out: DPP1 activity, pIC50 (converted)
Please note: log10 values; quantity IC50; unit nM.

COCCn1c(=O)sc2ccc(-c3ccc(C[C@@H](C#N)NC(=O)[C@@H]4CCCCN4)cc3)cc21 :: 0.70

Now for another entry.
Prompt line: Given the entry `CCS(=O)(=O)c1ccc(-c2ccc(C[C@@H](C#N)NC(=O)[C@@H]3CCCCN3)cc2)c(C)c1` , report its measured log10 of IC50.
Response line: 2.80

* * *

Items are presented alongside their recorded IC50.
Molecular target: Recombinant Human (rh) DPP1 (Homo sapiens)
Assay: Fluorescence Assay for Recombinant Human (rh) DPP1
Format: biochemical
Conditions: rhDPP1; substrate H-Gly-Arg-AMC; pH5.0; 30 min pre-incubation, 60 min reaction at 22° C.; highest concentration 10 μM; read-out: DPP1 activity, pIC50 (converted)
Counter-ions that a name gives are not always drawn.
# output: bare number, implied unit nM

For orientation, consider the following solved cases.
CC(=O)Nc1cccc(-c2ccc(C[C@@H](C#N)NC(=O)[C@@H]3CCCCN3)cc2)c1 [Example 8, Trifluoroacetate] :: 126
N#C[C@H](Cc1ccc(-c2cccc(C(N)=O)c2)cc1)NC(=O)[C@@H]1CCCCN1 [Example 34, trifluoroacetate] :: 200
N#C[C@H](Cc1ccc(-c2ccc(CCCO)cc2)cc1)NC(=O)[C@@H]1CCCCN1 [Example 27, trifluoroacetate] :: 63.1

Prompt line: Given the entry CNS(=O)(=O)c1ccc(-c2ccc(C[C@@H](C#N)NC(=O)[C@@H]3CCCCN3)cc2)cc1 [Example 71, Trifluoroacetate] , report its measured IC50.
Response line: 6.31

Prompt line: Given the entry CC(=O)NCc1cccc(-c2ccc(C[C@@H](C#N)NC(=O)[C@@H]3CCCCN3)cc2)c1 [Example 90, Trifluoroacetate] , report its measured IC50.
Response line: 126

Prompt line: Given the entry N#C[C@H](Cc1ccc(-c2ccccc2O)nc1)NC(=O)[C@@H]1CCCCN1 [Example 79] , report its measured IC50.
Response line: 316

Prompt line: Given the entry N#Cc1ccc(-c2cccc(C[C@@H](C#N)NC(=O)[C@@H]3CCCCN3)c2)cc1 [Example 100, Trifluoroacetate] , report its measured IC50.
Response line: 1000

Prompt line: Given the entry N#C[C@H](Cc1ccc(-c2ccc3c(c2)CNS3(=O)=O)cc1)NC(=O)[C@@H]1CCCCN1 [Example 67] , report its measured IC50.
Response line: 10

Prompt line: Given the entry N#C[C@H](Cc1ccc(-c2ccc(CN3CCOCC3)cc2)cc1)NC(=O)[C@@H]1CCCCN1 [Example 9, Trifluoroacetate] , report its measured IC50.
Response line: 158

Prompt line: Given the entry N#Cc1ccc(-c2ccc([C@H]3C[C@@]3(C#N)NC(=O)[C@@H]3CCCCN3)cc2)cc1 [Example 103, Trifluoroacetate] , report its measured IC50.
Response line: 158

Prompt line: Given the entry CN1CCN(c2ccc(-c3ccc(C[C@@H](C#N)NC(=O)[C@@H]4CCCCN4)cc3)cn2)CC1 [Example 47, trifluoroacetate] , report its measured IC50.
Response line: 1260

Prompt line: Given the entry N#Cc1ccc(-c2ccc(C[C@@H](C#N)NC(=O)[C@@H]3CCCCN3)cc2)cn1 [Example 53] , report its measured IC50.
Response line: 31.6

Prompt line: Given the entry N#C[C@H](Cc1ccc(-c2cccc(CN3CCOCC3)c2)cc1)NC(=O)[C@@H]1CCCCN1 [Example 109, Ditrifluoroacetate] , report its measured IC50.
Response line: 158

Prompt line: Given the entry COCCn1c(=O)oc2ccc(-c3ccc(C[C@@H](C#N)NC(=O)[C@@H]4CCCCN4)cc3)cc21 [Example 97] , report its measured IC50.
Response line: 15.8
